Attribution: PubChem BioAssay AID1963852

tested on: 282377-053-R-J1-PDC complex spheroid viability; assay: Anticancer human tumor 282377-053-R-J1-PDC patient-derived colon adenocarcinoma cell line growth inhibition [POLQ]; details: second compound 0.1 µM; first compound 3.16 µM; stronger effect = lower value;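 also: spheroids exposed to compounds for seven days; 100% = DMSO vehicle control viability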
propertyName: viability, T/C

Some entries whose results are on file:
O=C(c1cc(Cc2n[nH]c(=O)c3ccccc23)ccc1F)N1CCN(C(=O)C2CC2)CC1 + COC1C(OC(N)=O)C(O)C(Oc2ccc3c(O)c(NC(=O)c4ccc(O)c(CC=C(C)C)c4)c(=O)oc3c2C)OC1(C)C	105%
O=C(c1cc(Cc2n[nH]c(=O)c3ccccc23)ccc1F)N1CCN(C(=O)C2CC2)CC1 + Cc1cccc(N(C)C(=O)C2C(O)CCN2c2nc(C)cc(C(F)(F)F)c2C#N)c1	116%

Continue with the compound presented below.
Input: Identify measured viability, T/C associated with CCc1cc2c(N3CCc4c(cc(Cn5ccnc5)cc4-c4cn(C)nc4C(F)(F)F)C3=O)ccnc2c(OC)n1 + Nc1ccc(C#CCN(C(=O)Cc2ncc(C(F)(F)F)cc2C(F)(F)F)c2ccc(F)cc2)nn1
Output: 107%
